The measurements presented in this section are drawn from patent US20130243795A1.

Biological target: T1, Human CD27 ECD, monomeric soluble (construct limits not stated) (human, UniProt P26842 20-191)
T1 construct: extracellular domain; target of the Biacore assays; also called monomeric soluble CD27; CD27-His
T1 sequence (P26842 20-191): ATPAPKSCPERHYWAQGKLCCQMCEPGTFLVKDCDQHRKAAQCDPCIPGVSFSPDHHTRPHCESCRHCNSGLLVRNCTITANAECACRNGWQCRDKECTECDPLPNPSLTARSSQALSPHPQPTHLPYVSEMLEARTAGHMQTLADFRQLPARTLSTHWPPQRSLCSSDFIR
Assay: Biacore SPR, purified mAb
Give measured koff for each item. Keep answers brief.

Q: Give the reported koff for this binder. M708 (antibody, V domains shown, also called single-gene DNA ID 708) VH: EVQLLESGGGLVQPGGSLRLSCAASGFTFSSYTMSWVRQAPGKGLEWVSVIDHGGGSTHYPDSVKGRFTISRDNSKNTLYLQMNSLRAEDTAVYYCARHRGNPFDYWGQGTLVTVSS VL: DIQMTQSPSSLSASVGDRVTITCRASKSVSTSGYSFMHWYQQKPGKAPKLLIYVGSRLDYGVPSRFSGSGSGTDFTLTISSLQPEDFATYYCQHSRELPWTFGQGTKVEIK
Ans: 0.000225 s⁻¹

Q: Given the binder M41 (antibody, human IgG1, V domains shown, chimeric; also called C2191 parent; C2191 parent chimera) VH: EVKLVESGGGLVKPGGSLKLSCAASGFTFSSYTMSWVRQTPEKRLEWVAYISSGGGNTYYPDSVKGRFTISRDNARNTLYLQMSSLRSEDTAMYYCSRHRGNPFDYWGQGTTLTVSS VL: DIVLTQSPASLAVSLGQRATISCRASKSVSTSGYSFMHWYQQKPGQPPKLLIYLASNLESGVPARFSGSGSGTDFTLNIHPVEEEDAATYYCQHSRELPWTFGGGTKLEIK , write its reported koff.
Ans: 0.0103 s⁻¹

Q: Supply recorded koff for M696 (antibody, V domains shown, also called single-gene DNA ID 696) VH: QVQLVESGGGLVKPGGSLRLSCAASGFTFSSYGMSWIRQAPGKGLEWVSYIDEGGGQTIYPDSVKGRFTISRDNAKNSLYLQMNSLRAEDTAVYYCARHRGNPFDYWGQGTLVTVSS VL: DIQMTQSPSSLSASVGDRVTITCRASKSVSHVRWSFMHWYQQKPGKAPKLLIYLASKLESGVPSRFSGSGSGTDFTFTISSLQPEDIATYYCQHSRELPWTFGQGTKVEIK here.
Ans: 2.1e-05 s⁻¹
